Protocol notes: Photodecomposition of Al and Si phthalocyanines in toluene in the presence of squalene under white light
Type: physicochemical
Experimental conditions: time 6 h, radiation 258 kJ/mol × 10^−6; toluene ~9 μM, squalene 1:1000 mole ratio, white light 1.2 kJ/s/m^2, air
decomp (%) listing for selected compounds.
I'd appreciate it if you wrote the number followed by its unit.

Would you mind telling me what decomp (%) value was observed for "CCCCCC[Si](CCCCCC)(CCCCCC)[O][Al]1[n]2c3c4ccccc4c2N=c2c4ccccc4c([n]21)=NC1=NC(=NC2=NC(=N3)c3ccccc32)c2ccccc21" ?
23%

Try "CCCCCCCC[Si](CCCCCCCC)(CCCCCCCC)O[Si]1(O[Si](CCCCCCCC)(CCCCCCCC)CCCCCCCC)n2c3c4ccccc4c2N=C2N=C(N=c4c5ccccc5c(n41)=NC1=NC(=N3)c3ccccc31)c1ccccc12" next.
21%

Param item: "CCC[Si](CCC)(CCC)O[Si]1(O[Si](CCC)(CCC)CCC)n2c3c4ccccc4c2N=C2N=C(N=c4c5ccccc5c(n41)=NC1=NC(=N3)c3ccccc31)c1ccccc12"
6%
